Data credit: patent US20260262643A1

system: soybean; experiment: Test A preemergence; type: in vivo, Glycine max; conditions: 125 g ai/ha, visual injury after 10 days, 0 to 100 scale, 0 is no effect, 100 is complete control
So basically, if Plant response rating, Soybean comes in under 20 it's 1 (yes), and if it's 20 or more it's 0 (no).

Example results:
compound=Cc1cccc2c1O[C@@H](C)CN2C(=O)c1cccc(-n2cnn(C(C)C)c2=O)c1 category="0 (no)"
compound=C=CCOc1ccc(-n2cnc(C(C)C)n2)cc1C(=O)N1C[C@H](C)Oc2c(Cl)cccc21 category="0 (no)"
compound=CCc1ncn(-c2ccc(CC)c(C(=O)N3C[C@H](C)Oc4c(Cl)cccc43)c2)n1 category="0 (no)"
compound=CCc1ccc(-n2cnc(C(C)(C)C)n2)cc1C(=O)N1C[C@H](C)Oc2c(Cl)cccc21 category="0 (no)"
compound=Cc1ccc(-n2cnc(C(C)C)n2)cc1C(=O)N1C[C@H](C)Oc2c(C)cccc21 category="0 (no)"
compound=Cc1cccc2c1O[C@@H](C)CN2C(=O)c1cccc(-n2ncnc2C(C)C)c1 category="1 (yes)"

Determine if `Cc1cccc2c1O[C@@H](C)CN2C(=O)c1cccc(-n2cnc(Cl)n2)c1` shows Plant response rating, Soybean strictly lower than 20.
1 (yes)

Determine if `COc1ccc(-n2cnc(C(C)(C)C)n2)cc1C(=O)N1C[C@H](C)Oc2c(Cl)cccc21` shows Plant response rating, Soybean strictly lower than 20.
0 (no)
